assay-system: abc isoform of human TMEM16A channel expressed in CHO cells (Homo sapiens, UniProt Q5XXA6, DEL476-501)
Construct: expressed in transfected cells; host or cells: CHO cells, doxycycline-inducible expression under Blasticidin/Zeocin selection
protocol-summary: Automated patch clamping (QPatch) assay to measure TMEM16A activity in whole-cell
Type: cell-based
measurement-setup: CHO, maximum current at highest dose relative to reference potentiator at maximal concentration (upper limit) and vehicle (lower limit); read-out: TMEM16A QPATCH assay EC50 V3 Assay Window (% TMEM16A max activation)
Could you please report measured Emax for the items listed next?
Express it in %; write the number only.

# Emax lookup, item COC(=O)[C@@H](NC(=O)c1cnc(-c2cccc(-c3nnc(C(=O)N[C@@H](C)C4CC4)[nH]3)c2)o1)C(C)C [Example 12.3]
92

For the molecule shown here, COC(=O)[C@@H](NC(=O)c1cnc(-c2cccc(-c3cc(C(=O)N[C@@H](C)C4CC4)n(CC(O)C(F)(F)F)n3)c2)o1)C(C)C (single isomer, unassigned) [8.1 (i)] , give the reported Emax.
135

Value lookup for Emax; key = CCC(CC)NC(=O)c1cc(-c2cccc(-c3ncc(C(=O)N[C@@H](C)C4CC4)o3)c2)[nH]n1 [Example 1.6]
61

Returns the measured Emax for the input molecule. Input: CCC(CC)NC(=O)c1cc(-c2cccc(-c3ncc(C(=O)N[C@@H](C)C(=O)OCc4ccccc4)o3)c2)[nH]n1 [Example 1.41]
75

Param item = CCC(CC)NC(=O)c1cnc(-c2cccc(-c3cn(CC(O)C(F)(F)F)c(C(=O)N[C@@H](C)C4CC4)n3)c2)o1 (stereo partly drawn) [Example 17.0] ; retrieve measured Emax.
186

Fill blank: measured Emax of the molecule CCC(CC)NC(=O)c1cnc(-c2cccc(-c3nc(C(=O)NC(CC)CC)n(CCOC)n3)c2)o1 [Example 15.1] is ____.
155

Look up Emax for this molecule: CCC(CC)NC(=O)c1cnc(-c2cccc(-c3cc(C(=O)N[C@@H](C)C4CCCCC4)n[nH]3)c2)o1 [Example 3.49]
72

Which Emax value is on record for COC(=O)[C@H](CC(C)C)NC(=O)c1cnc(-c2cccc(-c3nnc(C(=O)N[C@@H](C)C4CC4)[nH]3)c2)o1 [Example 12.13] ?
99

Reported Emax, molecule CCC(CC)NC(=O)c1cc(-c2cccc(-c3ncc(C(=O)N[C@H](C(=O)OC)C(C)C)o3)c2)[nH]n1 [Example 1.47] : ____
75

What does the data say about its Emax? Entry: CCC(CC)NC(=O)c1cnc(-c2cccc(-c3cc(C(=O)N4CCCC4C(C)C)n[nH]3)c2)o1 (stereo not drawn) [Example 3.31]
87

Form field: reported Emax of C[C@H](NC(=O)c1cnc(-c2cccc(-c3nc(C(=O)N[C@@H](C)C4CC4)n(CCO)n3)c2)o1)C1CC1 [Example 16.1]
102

Can you look up the measured Emax of COC(=O)[C@H](CC1CCCCC1)NC(=O)c1cnc(-c2cccc(-c3nnc(C(=O)N[C@@H](C)C4CC4)[nH]3)c2)o1 [Example 12.17] for me?
77

====

assay-system: abc isoform of human TMEM16A channel expressed in CHO cells (Homo sapiens, UniProt Q5XXA6, DEL476-501)
Sequence (Q5XXA6 with tags, fused parts or gaps isoform Q5XXA6-5 DEL539-564): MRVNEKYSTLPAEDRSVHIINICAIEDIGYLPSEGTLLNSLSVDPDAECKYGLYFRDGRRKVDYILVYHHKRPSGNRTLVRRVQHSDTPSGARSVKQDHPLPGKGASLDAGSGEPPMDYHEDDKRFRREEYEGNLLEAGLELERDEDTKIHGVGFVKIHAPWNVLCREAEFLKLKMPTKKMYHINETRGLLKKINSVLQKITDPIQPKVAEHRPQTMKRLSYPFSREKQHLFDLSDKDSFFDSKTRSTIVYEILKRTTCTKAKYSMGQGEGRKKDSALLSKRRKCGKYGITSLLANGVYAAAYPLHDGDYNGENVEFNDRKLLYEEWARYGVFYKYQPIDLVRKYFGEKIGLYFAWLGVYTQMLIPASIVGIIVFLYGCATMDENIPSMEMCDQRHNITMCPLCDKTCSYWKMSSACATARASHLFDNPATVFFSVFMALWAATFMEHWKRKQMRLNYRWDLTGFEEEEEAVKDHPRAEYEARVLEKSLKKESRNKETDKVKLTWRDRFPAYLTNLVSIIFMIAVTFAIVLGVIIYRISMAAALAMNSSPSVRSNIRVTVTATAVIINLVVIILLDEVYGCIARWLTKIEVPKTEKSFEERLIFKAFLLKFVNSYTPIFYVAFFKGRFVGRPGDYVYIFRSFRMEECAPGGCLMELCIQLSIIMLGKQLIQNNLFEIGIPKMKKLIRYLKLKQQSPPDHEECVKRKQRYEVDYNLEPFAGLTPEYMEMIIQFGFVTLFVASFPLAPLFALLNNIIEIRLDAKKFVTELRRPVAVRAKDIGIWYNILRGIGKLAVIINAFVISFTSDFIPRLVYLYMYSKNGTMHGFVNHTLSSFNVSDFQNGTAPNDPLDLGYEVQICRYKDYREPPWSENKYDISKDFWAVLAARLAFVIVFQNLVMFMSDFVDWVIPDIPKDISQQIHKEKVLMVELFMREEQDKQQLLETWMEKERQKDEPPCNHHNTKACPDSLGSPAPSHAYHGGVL
protocol-summary: Automated patch clamping (QPatch) assay to measure TMEM16A activity in whole-cell
measurement-setup: CHO cells expressing human TMEM16A (abc), whole-cell automated patch clamp, Hill fit; read-out: TMEM16A QPATCH assay EC50 V3 EC50
Structures can show the parent of a compound that is named as a salt.
Decide using EC50 alone. Strictly below 300 nM: criterion met. Equal to or above 300 nM: criterion not met.

Given the entry CCC(CC)NC(=O)c1cnc(-c2cccc(-c3cc(C(=O)N4CCC(C(=O)OC)C4)n[nH]3)c2)o1 (stereo not drawn) , would its reported EC50 be below 300 nM?
criterion not met

A record lists "CCC(CC)NC(=O)c1cc(-c2cccc(-c3ncc(C(=O)N[C@@H](C)C4CC4)o3)c2)[nH]n1" . Is its EC50 below 300 nM?
criterion met

EC50 strictly < 300 nM for this compound? "COC(=O)[C@H](CC(C)C)NC(=O)c1cnc(-c2cccc(-c3nnc(C(=O)N[C@@H](C)C4CC4)[nH]3)c2)o1"
criterion met

Determine if "O=C(NC(C1CC1)C1CC1)c1nnc(-c2cccc(-c3ncc(C(=O)NC(C4CC4)C4CC4)o3)c2)[nH]1" shows EC50 strictly lower than 300 nM.
criterion met

Hello, is EC50 of the following compound strictly smaller than 300 nM? "CCC(CC)NC(=O)c1cc(-c2cccc(-c3ncc(C(=O)NCC4(C)CCCCC4)o3)c2)[nH]n1"
criterion not met

For this compound, is EC50 lower than 300 nM? "CCC(CC)NC(=O)c1cnc(-c2cccc(-c3cc(C(=O)NCC4CC4)n[nH]3)c2)o1"
criterion met

Determine if "CCC(CC)NC(=O)c1cnc(-c2cccc(-c3cc(C(=O)NCc4ccc(C5(C(F)(F)F)N=N5)cc4)n[nH]3)c2)o1" shows EC50 strictly lower than 300 nM.
criterion met

# TODO verify EC50 < 300 nM strictly for this compound: "CCC(CC)NC(=O)c1cc(-c2cccc(-c3ncc(C(=O)Nc4cccc(Cl)c4)o3)c2)[nH]n1"
criterion not met

Please indicate whether the reported EC50 of "C[C@@H](NC(=O)c1cnc(-c2cccc(-c3cc(C(=O)N[C@H](C)C4CC4)n(CCO)n3)c2)o1)C1CC1" is strictly below 300 nM.
criterion not met

Please determine if "CCC(CC)NC(=O)c1cnc(-c2cccc(-c3cc(C(=O)N[C@H](C(=O)OCc4ccccc4)C(C)C)n[nH]3)c2)o1" is below 300 nM in terms of EC50.
criterion met

EC50 under 300 nM? Item: "CCC(CC)NC(=O)c1cc(-c2cccc(-c3ncc(C(=O)NCC(=O)OC(C)C)o3)c2)[nH]n1"
criterion not met

Input "CCC(CC)NC(=O)c1cc(-c2cccc(-c3ncc(C(=O)NCc4ccc5c(c4)OCO5)o3)c2)[nH]n1" ; condition: EC50 strictly below 300 nM. Does it hold?
criterion not met

Decide: EC50 of CCOC(=O)[C@@H](NC(=O)c1cnc(-c2cccc(-c3cc(C(=O)NC(C(F)F)C4CC4)[nH]n3)c2)o1)C(C)C (stereo partly drawn) strictly below 300 nM?
criterion met

Confirm or reject: EC50 of "CCC(CC)NC(=O)c1cnc(-c2cccc(-c3cc(C(=O)N[C@H](C)C(C)C)n[nH]3)c2)o1" lies strictly below 300 nM
criterion met

Please let me know if "CCC(CC)NC(=O)c1cnc(-c2cccc(-c3cc(C(=O)NC4CCCCC4)n[nH]3)c2)o1" shows EC50 below 300 nM.
criterion met

Item "CCOC(=O)[C@@H](NC(=O)c1cc(-c2cccc(-c3ncc(C(=O)NC(CC)CC)o3)c2)nn1CCN1CCOCC1)C(C)C" : EC50 beneath 300 nM, strictly?
criterion not met

Regarding "CCC(CC)NC(=O)c1cnc(-c2cccc(-c3cc(C(=O)N[C@@H](C)C4CC4)n(CCO)n3)c2)o1" , kindly confirm whether its EC50 is beneath 300 nM.
criterion met

Given the entry CCC(CC)NC(=O)c1cnc(-c2cccc(-c3cc(C(=O)N[C@@H](C(=O)OC)c4ccccc4)n[nH]3)c2)o1 [Example 3.65, Trifluoroacetate] , would its reported EC50 be below 300 nM?
criterion not met
